Give %-inhibition of PLK3 for every item shown.
- Measurement Target: panel of more than 300 wild-type and mutant kinases (313 kinase panel) (Homo sapiens)
- Experiment Summary: Kinase profiling in a biochemical assay panel (mobility shift assays and ELISA), %-inhibition at 1 μM; selectivity entropy
- Condition Info: kinase PLK3; 1 μM
Write it as a number; the unit % goes unstated.

// %-inhibition of PLK3 lookup, key: CS(=O)(=O)CCNCc1ccc(-c2ccc3ncnc(Nc4ccc(OCc5cccc(F)c5)c(Cl)c4)c3c2)o1 [lapatinib] 6

Report %-inhibition of PLK3 for CO[C@H]1C[C@@H]2CC[C@@H](C)[C@@](O)(O2)C(=O)C(=O)N2CCCC[C@H]2C(=O)O[C@H]([C@H](C)C[C@@H]2CC[C@@H](OCCO)[C@H](OC)C2)CC(=O)[C@H](C)/C=C(\C)[C@@H](O)[C@@H](OC)C(=O)[C@H](C)C[C@H](C)/C=C/C=C/C=C/1C [everolimus] please. -1.66

Data request, read-out %-inhibition of PLK3, for Cc1nc(Nc2ncc(C(=O)Nc3c(C)cccc3Cl)s2)cc(N2CCN(CCO)CC2)n1 [dasatinib] 10

Please report the recorded %-inhibition of PLK3 for COc1cc2nccc(Oc3ccc(NC(=O)C4(C(=O)Nc5ccc(F)cc5)CC4)cc3)c2cc1OC [cabozantinib] . -1.07

Quick one: %-inhibition of PLK3 of N#CC[C@H](C1CCCC1)n1cc(-c2ncnc3[nH]ccc23)cn1 [ruxolitinib] ? 13

Requested read-out: %-inhibition of PLK3. Entry: C[C@@H](Oc1cc(-c2cnn(C3CCNCC3)c2)cnc1N)c1c(Cl)ccc(F)c1Cl [crizotinib] -2.24

I have this compound here, Cc1ccc(Nc2nccc(N(C)c3ccc4c(C)n(C)nc4c3)n2)cc1S(N)(=O)=O [pazopanib] , and I need its recorded %-inhibition of PLK3. 9

Which %-inhibition of PLK3 reading was recorded for the compound COc1cc(Nc2c(C#N)cnc3cc(OCCCN4CCN(C)CC4)c(OC)cc23)c(Cl)cc1Cl [bosutinib] ? 0.877

For COc1cc2c(Nc3ccc(Br)cc3F)ncnc2cc1OCC1CCN(C)CC1 [vandetanib] , what is its reported %-inhibition of PLK3? -6

Please give the measured %-inhibition of PLK3 for this compound: Cc1ccc(C(=O)Nc2ccc(CN3CCN(C)CC3)c(C(F)(F)F)c2)cc1C#Cc1cnc2cccnn12 [ponatinib] -11

Give the measured %-inhibition of PLK3 of CC(=O)Nc1cccc(-n2c(=O)n(C3CC3)c(=O)c3c(Nc4ccc(I)cc4F)n(C)c(=O)c(C)c32)c1 [trametinib] . -6.59

Endpoint output: %-inhibition of PLK3 of CCCS(=O)(=O)Nc1ccc(F)c(C(=O)c2c[nH]c3ncc(-c4ccc(Cl)cc4)cc23)c1F [vemurafenib] . Value? -2.83

Fill in the blank: the reported %-inhibition of PLK3 of CNC(=O)c1cc(Oc2ccc(NC(=O)Nc3ccc(Cl)c(C(F)(F)F)c3)c(F)c2)ccn1 [regorafenib] is ____. 2.24

* * *

- Measurement Target: panel of more than 300 wild-type and mutant kinases (313 kinase panel) (Homo sapiens, UniProt O00418)
- Sequence (O00418 1-725): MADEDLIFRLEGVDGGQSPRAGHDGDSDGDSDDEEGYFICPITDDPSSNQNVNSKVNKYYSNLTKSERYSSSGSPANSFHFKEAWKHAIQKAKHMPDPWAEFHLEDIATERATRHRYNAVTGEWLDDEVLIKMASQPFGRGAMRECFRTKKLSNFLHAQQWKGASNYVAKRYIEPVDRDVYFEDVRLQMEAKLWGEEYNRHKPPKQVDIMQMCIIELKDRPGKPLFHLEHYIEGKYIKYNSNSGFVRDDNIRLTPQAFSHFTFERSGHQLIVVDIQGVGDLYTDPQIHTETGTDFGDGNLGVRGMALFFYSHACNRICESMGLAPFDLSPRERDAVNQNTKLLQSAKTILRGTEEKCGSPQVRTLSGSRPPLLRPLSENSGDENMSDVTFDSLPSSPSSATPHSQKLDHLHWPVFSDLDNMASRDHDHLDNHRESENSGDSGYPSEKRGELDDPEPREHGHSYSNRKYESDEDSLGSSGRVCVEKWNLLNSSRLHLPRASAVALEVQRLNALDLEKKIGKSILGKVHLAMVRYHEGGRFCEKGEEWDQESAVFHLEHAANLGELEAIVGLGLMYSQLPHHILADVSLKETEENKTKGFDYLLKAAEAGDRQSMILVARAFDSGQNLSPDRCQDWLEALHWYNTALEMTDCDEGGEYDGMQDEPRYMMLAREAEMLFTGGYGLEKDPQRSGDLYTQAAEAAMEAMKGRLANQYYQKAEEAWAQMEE
- Experiment Summary: Kinase profiling in a biochemical assay panel (mobility shift assays and ELISA), %-inhibition at 1 μM; selectivity entropy
- Condition Info: kinase EEF2K; compound at 1 μM
Measure Name: %-inhibition of EEF2K (%)
Quick note: give the figure in %, leave out the unit.

Which %-inhibition of EEF2K is reported for this compound? CNC(=O)c1cc(Oc2ccc(NC(=O)Nc3ccc(Cl)c(C(F)(F)F)c3)c(F)c2)ccn1 [regorafenib] -11

Sample O=S(=O)(c1cccc2cnccc12)N1CCCNCC1 [fasudil] — what was its %-inhibition of EEF2K? -3.43

Could you share which %-inhibition of EEF2K value was measured for CCCS(=O)(=O)Nc1ccc(F)c(C(=O)c2c[nH]c3ncc(-c4ccc(Cl)cc4)cc23)c1F [vemurafenib] ? -5

Query: %-inhibition of EEF2K; subject: CO[C@H]1C[C@@H]2CC[C@@H](C)[C@@](O)(O2)C(=O)C(=O)N2CCCC[C@H]2C(=O)O[C@H]([C@H](C)C[C@@H]2CC[C@@H](OC(=O)C(C)(CO)CO)[C@H](OC)C2)CC(=O)[C@H](C)/C=C(\C)[C@@H](O)[C@@H](OC)C(=O)[C@H](C)C[C@H](C)/C=C/C=C/C=C/1C [temsirolimus] -6

# lookup: %-inhibition of EEF2K of COc1cc(Nc2c(C#N)cnc3cc(OCCCN4CCN(C)CC4)c(OC)cc23)c(Cl)cc1Cl [bosutinib] -7

Fill blank: measured %-inhibition of EEF2K of the compound CC(=O)Nc1cccc(-n2c(=O)n(C3CC3)c(=O)c3c(Nc4ccc(I)cc4F)n(C)c(=O)c(C)c32)c1 [trametinib] is ____. -3.43

Name the recorded %-inhibition of EEF2K for Cc1ccc(Nc2nccc(N(C)c3ccc4c(C)n(C)nc4c3)n2)cc1S(N)(=O)=O [pazopanib] . -3

Report %-inhibition of EEF2K for CO[C@H]1C[C@@H]2CC[C@@H](C)[C@@](O)(O2)C(=O)C(=O)N2CCCC[C@H]2C(=O)O[C@H]([C@H](C)C[C@@H]2CC[C@@H](OCCO)[C@H](OC)C2)CC(=O)[C@H](C)/C=C(\C)[C@@H](O)[C@@H](OC)C(=O)[C@H](C)C[C@H](C)/C=C/C=C/C=C/1C [everolimus] please. -14

Given the compound COc1cc2c(Nc3ccc(Br)cc3F)ncnc2cc1OCC1CCN(C)CC1 [vandetanib] , what is its reported %-inhibition of EEF2K? -10

Item under review: CS(=O)(=O)CCNCc1ccc(-c2ccc3ncnc(Nc4ccc(OCc5cccc(F)c5)c(Cl)c4)c3c2)o1 [lapatinib] . Reported %-inhibition of EEF2K? -2.58

Which measured %-inhibition of EEF2K value corresponds to N#CC[C@H](C1CCCC1)n1cc(-c2ncnc3[nH]ccc23)cn1 [ruxolitinib] ? -6

Which %-inhibition of EEF2K is reported for this compound? COc1cc2nccc(Oc3ccc(NC(=O)C4(C(=O)Nc5ccc(F)cc5)CC4)cc3)c2cc1OC [cabozantinib] -4.74

Looking for the measured %-inhibition of EEF2K of Cc1ccc(C(=O)Nc2ccc(CN3CCN(C)CC3)c(C(F)(F)F)c2)cc1C#Cc1cnc2cccnn12 [ponatinib] , can you help? -4

// query %-inhibition of EEF2K value for entry Cc1cn(-c2cc(NC(=O)c3ccc(C)c(Nc4nccc(-c5cccnc5)n4)c3)cc(C(F)(F)F)c2)cn1 [nilotinib] 6.34

For the compound shown here, C[C@@H](Oc1cc(-c2cnn(C3CCNCC3)c2)cnc1N)c1c(Cl)ccc(F)c1Cl [crizotinib] , give the reported %-inhibition of EEF2K. -4.6
